Values compiled from paper PMC9607330.

Could you please report measured IC50 for the items listed next?
# Tested on: A549 cells
# assay.info: MTT antiproliferative assay, A549
# Type: cell-based, human
# assay.setup: Homo sapiens; MTT, A549 (lung); mean ± SD of three experiments
Numbers only, in µM.

A selection of reference data follows.
{"columns": ["chem.smiles", "IC50, µM"],
 "data": [
  ["Oc1ccccc1-n1cc(CSc2nnc(Cn3c(-c4ccc(Cl)cc4Cl)nc4ccccc43)o2)nn1", 3.31],
  ["O=C(CSc1nnc(Cn2c(-c3ccc(Cl)cc3Cl)nc3ccccc32)o1)Nc1ccc(F)cc1", 5.3]
]}

We now examine a further compound.
What the record says about COC(=O)c1ccccc1NC(=O)CSc1nnc(Cn2c(-c3ccc(Cl)cc3Cl)nc3ccccc32)o1 : IC50 is 18
